TGT: human norepinephrine transporter (NET) (Homo sapiens (Human))
Sequence (P23975 whole entry): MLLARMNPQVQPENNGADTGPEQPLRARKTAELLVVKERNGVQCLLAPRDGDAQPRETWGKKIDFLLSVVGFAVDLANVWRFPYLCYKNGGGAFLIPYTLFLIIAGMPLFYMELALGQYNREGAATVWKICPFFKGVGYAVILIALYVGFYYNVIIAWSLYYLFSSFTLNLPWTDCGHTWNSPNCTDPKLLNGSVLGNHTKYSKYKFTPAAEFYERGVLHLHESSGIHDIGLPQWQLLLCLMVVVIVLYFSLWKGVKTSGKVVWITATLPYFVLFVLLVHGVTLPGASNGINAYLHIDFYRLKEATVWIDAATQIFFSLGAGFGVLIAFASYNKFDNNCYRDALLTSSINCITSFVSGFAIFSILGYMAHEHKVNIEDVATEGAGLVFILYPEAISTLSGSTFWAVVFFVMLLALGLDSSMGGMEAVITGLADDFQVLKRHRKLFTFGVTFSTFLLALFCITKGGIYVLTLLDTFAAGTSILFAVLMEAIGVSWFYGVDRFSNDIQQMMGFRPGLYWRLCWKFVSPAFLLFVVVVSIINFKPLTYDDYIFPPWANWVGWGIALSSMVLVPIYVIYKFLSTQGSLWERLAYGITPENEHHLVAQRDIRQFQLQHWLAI
ASSAY_PROCEDURE: Binding assay to human norepinephrine transporter (NET) ([3H]-Nisoxetin)
DETAILS: Table 2, dual compounds; [3H]-Nisoxetin binding
Listed molecules paired with reported Ki

// worked examples, Ki included
molecule=CCNc1ncc2c(n1)N(C)CCN(c1cccc(OCCN(C)Cc3ccccc3)c1)C2=O tgt="human norepinephrine transporter (NET) (Homo sapiens (Human))" reported="100 to 500 nM"
molecule="CNCCC(OCc1ccc(N2CCN(C)c3nc(SC)ncc3C2=O)cc1)c1ccccc1 (centres unmarked)" tgt="human norepinephrine transporter (NET) (Homo sapiens (Human))" reported="< 100 nM"
molecule="CNCCC(Oc1ccc(CN2CCN(C)c3nc(C)ncc3C2=O)cc1)c1ccccc1 (centres unmarked)" tgt="human norepinephrine transporter (NET) (Homo sapiens (Human))" reported="< 100 nM"

Turning now to a further molecule:
Task item: Query Ki on human norepinephrine transporter (NET) (Homo sapiens (Human)) for CCNc1ncc2c(n1)N(C)CCN(c1ccc(OC(CNC)c3ccccc3)cc1)C2=O (centres unmarked)
Reply: > 1000 nM

###

TGT: human α2δ-1 subunit of Cav2.2 calcium channel (Homo sapiens (Human))
Sequence (P54289 25-1103): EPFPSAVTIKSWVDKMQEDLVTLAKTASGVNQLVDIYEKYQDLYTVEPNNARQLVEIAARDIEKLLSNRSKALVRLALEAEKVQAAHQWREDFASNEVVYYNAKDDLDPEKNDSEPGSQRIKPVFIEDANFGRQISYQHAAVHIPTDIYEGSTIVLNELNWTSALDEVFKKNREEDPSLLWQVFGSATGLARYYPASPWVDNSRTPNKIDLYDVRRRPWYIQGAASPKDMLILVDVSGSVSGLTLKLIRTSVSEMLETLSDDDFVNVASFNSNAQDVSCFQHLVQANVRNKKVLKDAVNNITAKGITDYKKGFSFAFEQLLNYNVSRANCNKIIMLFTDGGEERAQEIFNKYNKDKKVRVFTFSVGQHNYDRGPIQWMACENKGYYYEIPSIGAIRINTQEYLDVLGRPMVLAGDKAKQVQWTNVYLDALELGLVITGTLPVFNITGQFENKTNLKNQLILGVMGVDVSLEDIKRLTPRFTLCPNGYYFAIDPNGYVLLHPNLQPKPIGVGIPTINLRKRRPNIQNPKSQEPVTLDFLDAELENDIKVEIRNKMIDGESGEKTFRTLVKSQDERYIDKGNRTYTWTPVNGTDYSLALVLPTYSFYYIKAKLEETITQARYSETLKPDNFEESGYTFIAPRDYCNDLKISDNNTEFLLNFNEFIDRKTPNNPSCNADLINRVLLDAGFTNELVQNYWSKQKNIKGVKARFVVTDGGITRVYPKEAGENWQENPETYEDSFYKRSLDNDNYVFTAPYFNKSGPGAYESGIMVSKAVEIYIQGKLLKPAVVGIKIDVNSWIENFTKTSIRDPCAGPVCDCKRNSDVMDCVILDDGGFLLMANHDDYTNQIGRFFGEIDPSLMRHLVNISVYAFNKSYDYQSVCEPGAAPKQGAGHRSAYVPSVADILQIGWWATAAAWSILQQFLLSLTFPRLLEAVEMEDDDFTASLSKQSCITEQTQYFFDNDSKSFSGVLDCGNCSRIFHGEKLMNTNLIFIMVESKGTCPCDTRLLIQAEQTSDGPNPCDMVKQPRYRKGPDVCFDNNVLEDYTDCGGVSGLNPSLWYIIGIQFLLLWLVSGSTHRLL
ASSAY_PROCEDURE: Binding assay to human α2δ-1 subunit of Cav2.2 calcium channel ([3H]-Gabapentin)
DETAILS: binding to α2δ-1, [3H]-Gabapentin; read-out: Ki (nM) α2δ-1
VALUE_TYPE: Ki

molecule=CCNc1ncc2c(n1)N(C)CCN(c1cccc(CCN(C)Cc3ccccc3)c1)C2=O reported="100 to 500 nM"
molecule="CCNc1ncc2c(n1)N(C)CCN(c1cccc(OC(CCN(C)C(=O)OC(C)(C)C)c3ccccc3)c1)C2=O (centres unmarked)" reported="> 3000 nM"
molecule=CSc1ncc2c(n1)N(C)CCN(c1cccc(CCN(C)C(=O)OC(C)(C)C)c1)C2=O reported="> 3000 nM"
molecule=CNCC[C@H](OCc1cccc(N2CCN(C)c3nc(SC)ncc3C2=O)c1)c1cccs1 reported="> 3000 nM"

Task item: Return reported Ki; argument: CCNc1ncc2c(n1)N(C)CCN(c1cccc(OCCN3CCCCC3)c1)C2=O
Reply: 500 to 3000 nM

Task item: Entry to check: CSc1ncc2c(n1)N(C)CCN(c1cccc(Cn3cc(CN(C)C(=O)OC(C)(C)C)nn3)c1)C2=O
Reply: > 3000 nM

Task item: CCNc1ncc2c(n1)N(C)CCN(c1cccc(OC(CNC)c3ccccc3)c1)C2=O (centres unmarked) , same question.
Reply: 500 to 3000 nM

Task item: Can you handle CNCC[C@H](Oc1cccc(N2CCN(C)c3nc(SC)ncc3C2=O)c1)c1ccccc1 next?
Reply: > 3000 nM

Task item: And then CCNc1ncc2c(n1)N(C)CCN(c1cccc(OC(C)CN(C)CCc3ccccc3)c1)C2=O (centres unmarked) , what is it?
Reply: 500 to 3000 nM

Task item: Note, next up: CCNc1ncc2c(n1)N(C)CCN(Cc1ccc(CNC)cc1)C2=O
Reply: 500 to 3000 nM

Task item: What about this molecule? CCNc1ncc2c(n1)N(C)CCN(c1cccc(-c3nnc(C)o3)c1)C2=O
Reply: < 100 nM

Task item: Entry CCNc1ncc2c(n1)N(C)CCN(Cc1ccccc1COC(CCNC)c1ccccc1)C2=O (centres unmarked) please
Reply: > 3000 nM

Task item: Entry to check: CNCCC(Oc1cccc(CN2CCN(C)c3nc(SC)ncc3C2=O)c1)c1ccccc1 (centres unmarked)
Reply: > 3000 nM

Task item: Now try CSc1ncc2c(n1)N(C)CCN(c1cccc(CO[C@@H](CCN(C)C(=O)OC(C)(C)C)c3cccs3)c1)C2=O .
Reply: > 3000 nM
